- test system: human CD3 (human, UniProt P07766 23-207; P04234 22-171; P09693 23-182)
- Sequence (P07766 23-207, chain 1 of 3): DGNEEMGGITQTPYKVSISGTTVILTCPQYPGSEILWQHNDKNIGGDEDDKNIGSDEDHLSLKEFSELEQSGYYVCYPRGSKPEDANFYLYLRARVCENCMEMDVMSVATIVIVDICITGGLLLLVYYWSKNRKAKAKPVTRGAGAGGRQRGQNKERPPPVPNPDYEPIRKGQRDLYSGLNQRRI
- Sequence (P04234 22-171, chain 2 of 3): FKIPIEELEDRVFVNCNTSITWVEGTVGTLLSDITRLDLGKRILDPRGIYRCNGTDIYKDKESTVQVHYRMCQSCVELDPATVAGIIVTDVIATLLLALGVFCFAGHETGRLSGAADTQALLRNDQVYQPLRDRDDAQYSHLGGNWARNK
- Sequence (P09693 23-182, chain 3 of 3): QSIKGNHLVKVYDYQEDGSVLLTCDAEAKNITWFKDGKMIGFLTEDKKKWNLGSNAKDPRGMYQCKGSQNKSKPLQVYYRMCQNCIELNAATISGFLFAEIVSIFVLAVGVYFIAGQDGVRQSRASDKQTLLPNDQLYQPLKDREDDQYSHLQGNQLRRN
- protocol details: cell-based or functional assay
Entries whose EC50_Fold change (Jurkat-NFAT-luciferase activation, normalized to ch40-C12-C10-E9) is below 4 fold take Y; entries at or above 4 fold take N.

Consider the following illustrative entries.
hu40E9-L6H3 (antibody, V domains shown) VH: EVQLVQSGAEVKKPGSSVKVSCKASGYTFSSYVIHWVRQAPGQGLEWMGYINPYNDVIKYNEKFKGRVTLTSDKSTSTAYMELSSLRSEDTAVYYCARDSYYSYDGFAYWGQGTLVTVSS VL: EIVLTQSPDFQSVTPKEKVTITCSASSSVSYMHWYQQKPDQSPKRLIYDTSKLASGVPSRFSGSGSGTDFTLTINSLEAEDAATYYCQQWRSWPPTFGGGTKVEIK : N
hu40E9-L2H6 (antibody, V domains shown) VH: EVQLVQSGAEVKKPGSSVKVSCKASGYTFSSYVIHWVRQAPGQGLEWMGYINPYNDVIKYNEKFKGRVTLTSDKSTSTAYMELSSLRSEDTAVYYCARESFSSYDGFAYWGQGTLVTVSS VL: EIVLTQSPDFQSVTPKEKVTITCSASSSVSYMHWYQQKPDQSPKRLIYDTSKLASGVPSRFSGSGSGTDFTLTINSLEAEDAATYYCQQWSSNPPTFGGGTKVEIK : N
hu40E9-L2H12 (antibody, V domains shown) VH: EVQLVQSGAEVKKPGSSVKVSCKASGYTFSSYVIHWVRQAPGQGLEWMGYINPYNDVIKYNEKFKGRVTLTSDKSTSTAYMELSSLRSEDTAVYYCARDDYYSYDGFAYWGQGTLVTVSS VL: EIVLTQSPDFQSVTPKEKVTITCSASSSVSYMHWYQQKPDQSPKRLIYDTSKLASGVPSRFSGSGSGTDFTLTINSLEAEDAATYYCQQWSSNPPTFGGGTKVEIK : N
hu40E9-L2H14 (antibody, V domains shown) VH: EVQLVQSGAEVKKPGSSVKVSCKASGYTFSSYVIHWVRQAPGQGLEWMGYINPYNDVIKYNEKFKGRVTLTSDKSTSTAYMELSSLRSEDTAVYYCARESYYSYDGFAYWGQGTLVTVSS VL: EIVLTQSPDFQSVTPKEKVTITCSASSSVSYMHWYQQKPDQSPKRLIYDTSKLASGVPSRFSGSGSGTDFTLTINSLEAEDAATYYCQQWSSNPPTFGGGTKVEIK : Y

Dear reviewer, please state whether hu40E9-L5H3 (antibody, V domains shown) VH: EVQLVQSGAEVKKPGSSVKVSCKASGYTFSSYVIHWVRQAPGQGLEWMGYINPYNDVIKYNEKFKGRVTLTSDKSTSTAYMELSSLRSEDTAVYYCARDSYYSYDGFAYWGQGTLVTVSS VL: EIVLTQSPDFQSVTPKEKVTITCSASSSVSYMHWYQQKPDQSPKRLIYDTSKLASGVPSRFSGSGSGTDFTLTINSLEAEDAATYYCQQWRSSPPTFGGGTKVEIK has EC50_Fold change (Jurkat-NFAT-luciferase activation, normalized to ch40-C12-C10-E9) strictly beneath 4 fold.
N
